Test system: MDA-MB-468 breast
Experiment: NCI-60 one-dose screen, 48 h
Settings: 10 µM unless noted
Protocol: Growth inhibition of the MDA-MB-468 human Breast tumor cell line is measured as a screen for anti-cancer activity. Cells are grown in 96 well plates and exposed to the test compound for 48 hours. Compounds are tested at a single concentration, which is 10^-5 M for most compounds. The reported endpoint is percent growth (GI% or GIPRCNT), where numbers from 0 - 100% represent growth inhibition, and numbers from -100% - 0 represent cell death. […]
Compounds without any hit were thinned out: in the full panel of roughly 83,000, 20% have a hit. The source made the active and inactive calls. Rule for the calls: active = growth percent below 10; inactive = the rest.
Respond using exactly one of the listed classes: active, inactive

- Compound: "C#CC#CC#CC#CC#CC#CC#CC#CCC1OCC(COC(=O)O[C@@H](C(=O)O[C@H]2C[C@@]3(O)[C@@H](OC(=O)c4ccccc4)[C@@H]4[C@]5(OC(C)=O)CO[C@@H]5C[C@H](O)[C@@]4(C)C(=O)[C@H](OC(C)=O)C(=C2C)C3(C)C)[C@@H](NC(=O)c2ccccc2)c2ccccc2)O1 (stereo not given in full)"
  Tgt: "MDA-MB-468 breast"
  Group: "active"
- Compound: "O=C(N/N=C/c1cccs1)c1[nH]c2ccc(Br)cc2c1-c1ccccc1"
  Tgt: "MDA-MB-468 breast"
  Group: "active"
- Compound: "CS(=O)c1cccc(-c2ccc3nc(N)n(-c4ccc(C(F)(F)F)cc4)c(=O)c3c2)c1 (stereo not given)"
  Tgt: "MDA-MB-468 breast"
  Group: "inactive"

So what was the verdict on CCN(CC)CCN1C(=O)c2c(c3c4ccccc4[nH]c3c3[nH]c4ccccc4c23)C1=O in this test?
inactive

CN=S(=O)(NC(=O)c1ccc(Cl)cc1Cl)c1ccc(Br)s1 (stereo not given) , same question.
inactive

c1ccc(C2Cc3ccccc3C2=NC2CCCCC2)cc1 (stereo not given) , same question.
inactive

O=C(CCl)N1c2ccccc2Sc2c1ccc1ccccc21 , same question.
inactive

O=C1CCC(C(=O)N/N=C/c2cc(F)ccc2F)N1 (stereo not given) , same question.
inactive

CC(=O)c1ccc(Nc2nc(SCC(C)C)nc(-c3ccc(F)cc3)c2C#N)cc1 , same question.
inactive

Cc1cc(N2CCCC2)nc(N(CCCNc2ccnc3cc(Cl)ccc23)Cc2ccc3c(c2)OCO3)n1 , same question.
active

* * *

Test system: MDA-MB-468 breast
Assay: NCI-60 one-dose screen, 48 h (100 = growth as untreated, 0 = no growth, -100 = all killed)
Details: 10 µM unless noted
This is part of a sample that, as a whole, favours compounds with a hit. Of some 83,000 tested, about 20% had one in any assay.
Ranges used to classify growth: one (below 60%), two (60% to below 90%), three (90% or more)

- Compound: "CC1=CC(=O)OC1C/C=C(\\C)CCC1[C@@]2(C)CCC[C@@](C)(C(=O)O)C2CC[C@@]1(C)O (some centres undefined)"
  Group: "three"

Class for COc1cc(-c2cc(C(=O)N3CCN(C(=O)c4ccccc4NCc4cccs4)CC3)nc3cc(-c4ccccc4)nn23)cc(OC)c1OC ?
two

CC1(C)CC[C@]2(C(=O)N3CCOCC3)CC[C@]3(C)C(=CC[C@@H]4[C@@]5(C)C/C(=C/c6ccncc6)C(=O)C(C)(C)[C@@H]5CC[C@]43C)[C@@H]2C1 , same question.
one

CCOC(=O)C1=C(C)N2C(=NC3=C(CCC/C3=C\c3ccc(Cl)cc3)C2c2ccc(Cl)cc2)S1 (centres undefined) , same question.
one

O=C(CN1CCCCC1)Nc1nc(-c2cc3ccccc3oc2=O)cs1 , same question.
three

Cc1c(C(=O)OCCO)cc(-c2ccc(Cl)cc2)n1-c1ccc(Cl)cc1Cl , same question.
one

Cc1ccc2c(n1)C(=O)C(Cl)=C(Nc1ccc(C)c(C)c1)C2=O , same question.
one

O=C(O)c1ccc(-n2cc(/C=N/Nc3ccc(Cl)cc3Cl)c(-c3ccccc3)n2)cc1 , same question.
two

C=CCn1c(SCC(=O)Nc2ccc(/C(C)=N/O)cc2)nnc1-c1cc(-c2ccc(S(N)(=O)=O)cc2)nc2ccccc12 , same question.
one

Cc1[nH]n(C(N)=S)c(=O)c1N=Nc1ccc(S(=O)(=O)Nc2ccncn2)cc1 , same question.
two

COc1cccc(-c2nc3sccn3c2-c2ccnc(NCCNS(=O)(=O)c3cccc(Cl)c3)c2)c1 , same question.
one

CCOC(=O)Nc1ccc(-c2nc(-c3cccc(OCCN4CCOCC4)c3)c(-c3ccnc(Br)c3)[nH]2)cc1 , same question.
one

Brc1ccc2[nH]cc(-c3nonc3-c3c[nH]c4ccccc34)c2c1 , same question.
two

COc1cnc2c(c1)C(=O)c1c-2n(CCCN2CCNCC2)c(=O)c2cc(Cl)ccc12 , same question.
two

COc1cccc(CC(C)=C(c2ccc(OCCN3CCCCC3)cc2)c2ccc(OCCN3CCCCC3)cc2)c1 , same question.
one

CCOC(=O)C1=C(C(=O)c2ccccc2)C(c2cccc([N+](=O)[O-])c2)C(C(=O)c2ccccc2)=C(C(=O)OCC)N1 , same question.
two

COc1ccc(-c2cc(-c3ccccc3)nc(SCCCC(=O)NO)n2)cc1OC , same question.
one

N#Cc1c(-c2ccc(Cl)cc2)nc(NCCO)[nH]c1=O , same question.
three

CSc1nc2ncnc(SC)c2[nH]1 , same question.
three
